Examples of molecules with documented Growth Rate follow.
Tested on: Fibroblast
experiment.summary: Incucyte cell viability with human fibroblast; further: unitless GR value; below 1 slowed growth and below 0 cell loss
Format: toxicity, cell-based
condition.context: 24 h, 10 µM, compound concentration 10 uM, replicate number 1
Give a plain numeric answer without units written out.

Answered examples (3):
molecule="CN(C)C(=O)Cn1cc(-c2nc(C3(c4ccc(-c5cnc(N)nc5)cc4)CC3)no2)cn1 [BI 0153]" target_or_system=Fibroblast numeric_readout=0.73
molecule=CC(C)(O)c1ccc2c(c1)ncn2-c1cccc(-c2ccccc2C#N)c1 target_or_system=Fibroblast numeric_readout=0.28
molecule=O=C(O)C(F)(F)F.O=C1NC(=O)/C(=C/c2c[nH]c(=O)c(-c3ccc(N4CCNCC4)nc3)c2)S1 target_or_system=Fibroblast numeric_readout=0.69

Input line: Specify Growth Rate for Cc1cnc(Nc2ccc(C(=O)N3CCN(C)CC3)cc2)nc1N[C@@H]1CCC[C@@H]1C(N)=O , system Fibroblast.
Output line: 0.96

Input line: Specify Growth Rate for O=C(Nc1cccc(Nc2nccc(Nc3cccc(C(F)(F)F)c3)n2)c1)C1CC1 [ANILINOPYRIMIDINE1] , system Fibroblast.
Output line: -0.48

Input line: Specify Growth Rate for Cl.NC(=O)c1ccccc1Nc1nc(-c2ccc(N3CCOCC3)cc2)cc2ncccc12 , system Fibroblast.
Output line: 0.07

Input line: Specify Growth Rate for COc1cc2nc(-c3cc(F)ccc3O)nc(N[C@@H]3CNC[C@H]3C(C)(C)O)c2cc1OC.Cl.Cl , system Fibroblast.
Output line: 0.06

Input line: Specify Growth Rate for CCc1ccc(-c2ncn(CC3(F)CCN(C)CC3)c2-c2ccnc3[nH]ccc23)nc1 , system Fibroblast.
Output line: 0.93
